tested on: intestinal alkaline phosphatase [Mus musculus]; test: mouse intestinal phosphatase enzyme activation – biochemical, luminescence, single concentration, confirmation (AID 434970); details: purified mouse IAP, CDP-Star luminescence, 30 min, at 10 µM; stronger effect = lower value
The campaign covered roughly 11,000 compounds. About 310 (2.8%) were called active. The sample as a whole holds a higher share of actives than the screen did.

- Compound: "CCN(CC)S(=O)(=O)c1ccc(NC(=O)Cn2c(=O)sc3ccccc32)cc1"
  activity change, negative = activation, %: -30.9
- Compound: "Cc1cc(C)nc(SCC(=O)c2ccc([N+](=O)[O-])cc2)n1"
  activity change, negative = activation, %: 13.3
- Compound: "COc1cc(OC)c2c(-c3cccc(-c4ccc(OC(F)(F)F)cc4)c3)cc(=O)oc2c1"
  activity change, negative = activation, %: 16.6
- Compound: "CCCN1C(=O)c2ccc(C(=O)NC3CCCCC3)cc2C1=O"
  activity change, negative = activation, %: -6.9
- Compound: "CCCNC(=O)c1csc2c1CCCCC2"
  activity change, negative = activation, %: 4.55
- Compound: "Cc1ccc(C(=O)Nc2nnn(C)n2)cc1"
  activity change, negative = activation, %: -10.2
- Compound: "O=C(NCCc1ccc(Cl)cc1)Nc1cccc(Cl)c1"
  activity change, negative = activation, %: -92.5
- Compound: "C=CCc1cc(Cl)ccc1OC(=O)Nc1cccc(Cl)c1"
  activity change, negative = activation, %: -105
- Compound: "Cc1cccc(CN2CCC(CNC(=O)CCNC(=O)Cn3ccc4ccccc4c3=O)CC2)c1"
  activity change, negative = activation, %: 2.6
- Compound: "COc1cccc(N=c2oc3ccc(OC)cc3cc2-c2nc3ccccc3[nH]2)c1"
  activity change, negative = activation, %: -2.7
- Compound: "COCCN(C(=O)C(F)(F)F)C(C(=O)NC1CCCCC1)c1ccco1 (stereo not drawn)"
  activity change, negative = activation, %: 2.15
- Compound: "C#CCOCCOCCOCCNc1nc(N2CCN(C(=O)CCCCCCCCCCNC(=O)Cn3cc(CCCCCN)nn3)CC2)nc(N2CCN(C(=O)CCCCCCCCCCNC(=O)[C@H]([C@@H](C)CC)n3cc(CCCCCN)nn3)CC2)n1"
  activity change, negative = activation, %: -267
- Compound: "CC(=O)Nc1cccc(NC(=O)Nc2ccc(C(C)=O)cc2)c1"
  activity change, negative = activation, %: -13.4
- Compound: "O=C(NCc1ccncc1)c1nnc(Cc2c(F)cccc2Cl)o1"
  activity change, negative = activation, %: 4.9
- Compound: "Cc1ccc(NC(=O)NCC2CCN(Cc3cccc(Cl)c3)CC2)c(Cl)c1"
  activity change, negative = activation, %: -120
- Compound: "COc1ccccc1C(=O)Nc1cccc(SC)c1"
  activity change, negative = activation, %: -11.6
- Compound: "CC(O)c1cccc(NC(=O)Nc2cccc(NC(=O)Nc3cccc(C(C)O)c3)c2)c1 (stereo not drawn)"
  activity change, negative = activation, %: -88.9
- Compound: "C/C(CC(=O)Nc1cccc(Cl)c1)=N\\NC(=O)Cc1ccc(Cl)cc1"
  activity change, negative = activation, %: -2.2
- Compound: "O=C(Nc1ccc(Cl)cc1)N[C@@H]1c2c(ccc3ccccc23)OC[C@@H]1CO"
  activity change, negative = activation, %: -385
- Compound: "Cc1cc(C(F)F)nn1CC(=O)N1CCSCC1"
  activity change, negative = activation, %: 1.65
- Compound: "CSc1cccc(NC(=O)Nc2nc3c(C)cccc3s2)c1"
  activity change, negative = activation, %: -45
- Compound: "O=C(NCC1CCN(Cc2cccc(Cl)c2)CC1)Nc1ccccc1Cl"
  activity change, negative = activation, %: -118
- Compound: "COc1ccc2cc(C[C@@H]3CC[C@@H](CO)O3)ccc2c1"
  activity change, negative = activation, %: -4.15
- Compound: "CC(C)OC(=O)NCCOC(=O)Nc1cccc(Cl)c1"
  activity change, negative = activation, %: -112
- Compound: "C#CCOCCOCCOCCNc1nc(N2CCN(C(=O)CCCCCCCCCCNC(=O)Cn3cc(CCCCCN)nn3)CC2)nc(N2CCN(C(=O)CCCCCCCCCCNC(=O)[C@H]([C@@H](C)CC)n3cc(CCCCN=C(N)N)nn3)CC2)n1"
  activity change, negative = activation, %: -904
- Compound: "N#CCc1ccc(NC(=O)Nc2cccc(Cl)c2)cc1"
  activity change, negative = activation, %: -87.6
- Compound: "O=C(Nc1ccc(Cl)cc1)Nc1ccc(N2CCOCC2)cc1"
  activity change, negative = activation, %: -16.9
- Compound: "CCOC(=O)Cc1cc(=O)n(-c2nc3ccccc3s2)[nH]1"
  activity change, negative = activation, %: 19.4
- Compound: "CCOC(=O)Cn1c(=O)c(-c2ccccc2NCc2ccccc2)nc2ccccc21"
  activity change, negative = activation, %: 23.5
- Compound: "CCC1(COC(=O)Nc2cccc(Cl)c2)COC1"
  activity change, negative = activation, %: -16.4
- Compound: "COC(=O)c1cccc(NC(=O)Nc2ccc(Cl)cc2)c1"
  activity change, negative = activation, %: -47.6
- Compound: "C=CCn1c(C)cc(C(=O)COC(=O)COc2ccccc2C#N)c1C"
  activity change, negative = activation, %: 8.05
- Compound: "CSc1cccc(NC(=O)NCc2cccc(CNC(=O)Nc3cccc(SC)c3)c2)c1"
  activity change, negative = activation, %: -61.9
- Compound: "COc1cccc(OC)c1C(=O)Nc1cccc(C(C)=O)c1"
  activity change, negative = activation, %: 1.65
- Compound: "CC(C)(C)OC(=O)N[C@@H](Cc1ccccc1)c1nnc(SCC(=O)O)o1"
  activity change, negative = activation, %: 4.4
- Compound: "CCOC(=O)c1sc(NC(=O)Nc2cccc(Cl)c2)cc1C"
  activity change, negative = activation, %: -82.6
- Compound: "CSc1ccccc1NC(=O)Nc1cccc(Cl)c1"
  activity change, negative = activation, %: -48.5
- Compound: "C#CCOCCOCCOCCNc1nc(N2CCN(C(=O)CCCCCCCCCCNC(=O)Cn3cc(CCCCCN)nn3)CC2)nc(N2CCN(C(=O)CCCCCCCCCCNC(=O)[C@@H](CCSC)n3cc(CCO)nn3)CC2)n1"
  activity change, negative = activation, %: -256

----------
tested on: intestinal alkaline phosphatase [Mus musculus]; assay: mouse intestinal phosphatase enzyme activation – biochemical, luminescence, single concentration, confirmation (AID 434970); settings: purified mouse IAP, CDP-Star luminescence, 30 min, at 10 µM; measured here: IAP activation factor, stronger effect = higher value
In all, about 11,000 compounds went through this assay and about 310 (2.8%) were called active. The entries come from a sample that favours actives as a whole.

- Compound: "O=C(OCC1OC2C(Oc3nc(=O)ccn32)C1O)c1ccccc1 (stereo not drawn)"
  activation factor: 1.02
- Compound: "COc1cccc(OC)c1C(=O)Nc1cccc(C(C)=O)c1"
  activation factor: 0.983
- Compound: "CCOC(=O)C1=C(C)OC(N)=C(C#N)C1c1cc2cc(C)ccc2nc1N1CCCCC1 (stereo not drawn)"
  activation factor: 1.02

----------
// values below are reported activation factor
tested on: intestinal alkaline phosphatase [Mus musculus]; assay: mouse intestinal phosphatase enzyme activation – biochemical, luminescence, single concentration, confirmation (AID 434970); conditions: purified mouse IAP, CDP-Star luminescence, 30 min, at 10 µM; measured here: IAP activation factor, stronger effect = higher value
In all, about 11,000 compounds went through this assay and about 310 (2.8%) were called active. Only a selection was taken, and actives are over-represented in it overall.

- Molecule: "Cc1cc(C)nc(SCc2nnc(SCC(=O)Nc3ccccc3C)n2Cc2ccco2)n1"
  activation factor: 0.974
- Molecule: "COc1ccc2c(c1)[nH]c1c(=O)n(CCc3cnc[nH]3)cnc12"
  activation factor: 1.02
- Molecule: "CCCNC(=O)c1ccc(SC)cc1OC"
  activation factor: 0.92
- Molecule: "COc1ccc(NS(=O)(=O)c2ccc(OC)c(OC)c2)cc1OC"
  activation factor: 0.945
- Molecule: "COc1ccc(CCNC(=O)CC2COc3ccccc3O2)cc1OC (stereo not drawn)"
  activation factor: 1.06
- Molecule: "O=C(CC1CCCC1)Nc1nnc(C2CC2)s1"
  activation factor: 0.933
- Molecule: "Cc1cc(C)c2c(-n3cccc3)c(C(=O)NNS(=O)(=O)c3ccc(Br)cc3)sc2n1"
  activation factor: 0.865
- Molecule: "Cc1cc2cc(CNC(=S)NCc3ccccc3)ccc2n1C"
  activation factor: 1.2

----------
system: intestinal alkaline phosphatase [Mus musculus]; experiment: mouse intestinal phosphatase enzyme activation – biochemical, luminescence, single concentration, confirmation (AID 434970); conditions: purified mouse IAP, CDP-Star luminescence, 30 min, at 10 µM
Out of some 11,000 compounds screened, about 310 (2.8%) were called active. Cut-off read from the data, not from the text of the source: active = activity change below about -85%; inactive = the rest. The entries come from a sample that favours actives as a whole.
Possible outcomes: 1 (yes) (active), 0 (no) (inactive)

- Compound: "O=C(Cc1ccccc1)NNC(=O)Nc1cccc(Cl)c1"
  Group: "0 (no)"
- Compound: "FC(F)Sc1ccc(NC(=S)NCc2ccccc2)cc1"
  Group: "0 (no)"
- Compound: "COC(=O)[C@H](C)N(Cc1ccc(Cl)c(Cl)c1)S(=O)(=O)CCNC1CCCC1"
  Group: "0 (no)"
- Compound: "CC(NC(=O)C1CCC1)c1ccccc1 (stereo not given)"
  Group: "0 (no)"
- Compound: "CCCC1C2C(=O)N(c3ccccc3OCC)C(=O)C2ON1c1ccccc1 (stereo not given)"
  Group: "0 (no)"
- Compound: "O=C(Nc1ccc(Cl)cc1)NC1CCCCC1Cc1ccco1 (stereo not given)"
  Group: "1 (yes)"
- Compound: "COC(=O)c1ccc(NC(=S)NC2CC3CCC2C3)cc1 (stereo not given)"
  Group: "0 (no)"
- Compound: "CC1CCCN(C(C(=O)Nc2ccc(C(C)C)cc2)c2ccc3c(c2)OCO3)C1 (stereo not given)"
  Group: "0 (no)"
- Compound: "O=C(Nc1ccc(SC(F)F)cc1)c1cccc2nc3ccccc3nc12"
  Group: "0 (no)"
- Compound: "CC(=O)NCC(=O)N(c1c(C)n(C)n(-c2ccccc2)c1=O)C1(C(=O)NC2CCCC2)CCCCC1"
  Group: "0 (no)"
- Compound: "Cc1ccc(C)c(CN2CCC(CNC(=O)Nc3cccc(Cl)c3C)CC2)c1"
  Group: "1 (yes)"
- Compound: "COCCN(CC(=O)NCc1ccc2c(c1)OCO2)C(=O)CCC(=O)Nc1nccs1"
  Group: "0 (no)"
- Compound: "Cn1c(COc2ccc3ccccc3c2)nnc1SCC(=O)O"
  Group: "0 (no)"
- Compound: "CCOC(=O)c1c(C)[nH]c(C(=O)COC(=O)C2CC(=O)N(Cc3ccccc3)C2)c1C (stereo not given)"
  Group: "0 (no)"
- Compound: "FC(F)Sc1ccc(NC(=S)NC2CCCCC2)cc1"
  Group: "0 (no)"
- Compound: "O=C(Nc1ccc(Cl)cc1)C1CCN(C(=O)NC2CCCCC2)CC1"
  Group: "0 (no)"
- Compound: "O=C(OCC1OC2C(Oc3nc(=O)ccn32)C1O)c1ccccc1 (stereo not given)"
  Group: "0 (no)"
- Compound: "Cc1cnc(NC(=O)c2ccco2)s1"
  Group: "0 (no)"
- Compound: "O=C(NCc1ccc2c(c1)OCO2)c1cccnc1"
  Group: "0 (no)"
- Compound: "CC(NC(=O)Nc1ccc(Cl)cc1)c1ccccc1 (stereo not given)"
  Group: "1 (yes)"
- Compound: "CCOC(=O)c1ccc(NC(=S)NCCc2ccccc2F)cc1"
  Group: "0 (no)"
- Compound: "O=C(CN1CCCCCC1)Nc1ccccc1F"
  Group: "0 (no)"
- Compound: "FC(F)Sc1ccc(NC(=S)NCC2CCCCC2)cc1"
  Group: "0 (no)"
- Compound: "O=C(Nc1cccc(Cl)c1)N1CCCC1"
  Group: "0 (no)"
- Compound: "CC1CCCC(NC(=S)Nc2ccc(SC(F)F)cc2)C1C (stereo not given)"
  Group: "1 (yes)"
- Compound: "O=C(NCc1cccc2ccccc12)Nc1ccccc1"
  Group: "0 (no)"
- Compound: "FC(F)Sc1ccc(NC(=S)NC2CCCC2)cc1"
  Group: "0 (no)"
- Compound: "CCNC(=O)C1CCN(S(=O)(=O)c2ccc(F)cc2)CC1"
  Group: "0 (no)"
- Compound: "C=CCNC(=O)/C(=C/c1ccco1)NC(=O)c1ccc(Br)o1"
  Group: "0 (no)"
- Compound: "CC(C)OCCCNC(=O)C(=O)NCCCOC(C)C"
  Group: "0 (no)"
- Compound: "CC[C@]12c3[nH]c4cc(-c5ccco5)ccc4c3CCN1C(=O)[C@@H](CC(=O)NC(C)(C)C)C[C@@H]2C(=O)N1CCN(C(=O)C2CC2)CC1"
  Group: "0 (no)"
- Compound: "Cc1noc(-c2ccccc2)c1NC(=O)Nc1ccc(Cl)cc1"
  Group: "0 (no)"
- Compound: "O=C(Nc1ccc(C(=O)N2CCCCC2)cc1)Nc1cccc(Cl)c1"
  Group: "1 (yes)"
- Compound: "CCOC(=O)/C(C#N)=C\\c1ccco1"
  Group: "0 (no)"
- Compound: "FC(F)Sc1ccc(NC(=S)NC(c2ccccc2)c2ccccc2)cc1"
  Group: "1 (yes)"
